# target of assay: FAD-linked sulfhydryl oxidase ALR (Homo sapiens) (UniProt P55789)
# Sequence (P55789 whole entry, looked up): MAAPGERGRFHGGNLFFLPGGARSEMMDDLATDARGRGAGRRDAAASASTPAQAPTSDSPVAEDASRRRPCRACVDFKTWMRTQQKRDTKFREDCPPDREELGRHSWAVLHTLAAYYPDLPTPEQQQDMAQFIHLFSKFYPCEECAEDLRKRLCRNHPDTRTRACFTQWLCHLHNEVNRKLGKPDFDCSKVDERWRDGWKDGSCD
# method summary: inhibitors of human ALR sulfhydryl oxidase, dose response, biochemical, H2O2 detection, luminescence, cherry-pick (AID 493248)
# condition label: purified ALR, DTT oxidation, H2O2 HRP-luminol luminescence; at 10 µM (top of the series)
Screen size: about 2,300 compounds; about 1,400 (61%) were called active. Not shown: some 7% with an inconclusive outcome. So high a share suggests a set chosen from earlier hits. Only a sample is shown. Potency and affinity values are given separately.
metric: activity change, negative = inhibition (%)
Give the value, in units of %, as a plain number.

Please review the following examples before continuing.
>>> recorded_number("COC(=O)c1c(-c2ccc(C)cc2)csc1N")
-4.41
>>> recorded_number("Cc1[nH]n(C(N)=S)c(=O)c1N=Nc1cccc([N+](=O)[O-])c1C")
-50.5
>>> recorded_number("Oc1ccc(C2C[C@H]3CC[C@@H]2C3)cc1O (some centres not stated)")
0.253
>>> recorded_number("O=Cc1ccc(O)c(O)c1")
-17.2

Kindly indicate its recorded activity change, negative = inhibition. Item: CCN1CCN(Cc2nc3c(c(=O)n(C)c(=O)n3C)n2CC(=O)c2ccccc2)CC1
13.8

Kindly indicate its recorded activity change, negative = inhibition. Item: COc1cccc(Oc2cn[nH]c2-c2ccc(O)cc2O)c1
-53.3

Kindly indicate its recorded activity change, negative = inhibition. Item: CC1CN(c2ccccc2)NC1=O (configuration not stated)
23.1

Kindly indicate its recorded activity change, negative = inhibition. Item: c1ccc2c(-c3csc(-c4ccncc4)n3)c[nH]c2c1
-10.2

Kindly indicate its recorded activity change, negative = inhibition. Item: Oc1ccc(/C=N/N=C/c2ccc(O)cc2)cc1
256

Kindly indicate its recorded activity change, negative = inhibition. Item: COc1ccccc1-c1c(-c2ccc(O)cc2O)n[nH]c1C(F)(F)F
267

Kindly indicate its recorded activity change, negative = inhibition. Item: CC1CCN(CCCNC(=O)c2ccc(CSCc3cccc(Cl)c3)o2)CC1
26.9

Kindly indicate its recorded activity change, negative = inhibition. Item: CCN(CC)S(=O)(=O)c1ccc(C(=O)Nc2nnc(CSC)o2)cc1
-25.7
